List of C50 values.
- System Tested: HLA-A2 (human)
- Method Summary: assembly assay: peptide stabilisation of HLA-A2 from T2 lysate, W6/32 immunoprecipitation
Quick reminder: number only, in µM, skip the unit.

Qu. Give the reported value of C50 for this record: WLSLKTLLSL (The end of the range is worked out from the printed start and the peptide length) [bcl214]
Ans. 3

Qu. Give the reported value of C50 for this record: SLALVGACI (The end of the range is worked out from the printed start and the peptide length) [bcl222]
Ans. 1

Qu. Give the reported value of C50 for this record: NIALWMTEYL (The end of the range is worked out from the printed start and the peptide length) [bcl172]
Ans. 2

Qu. Give the reported value of C50 for this record: FTARGRFATV (The end of the range is worked out from the printed start and the peptide length) [bcl124]
Ans. 1
